Entries and their UVA/UVB
- METHOD_DESCRIPTION: Filtering parameters (in vitro SPF, UVAPF, UVA/UVB, critical wavelength) of W/O formulations on PMMA plates
- Assay type: physicochemical
- EXPERIMENTAL_PARAMETERS: 2% in W/O formulation
Give only the figure.

Some solved cases for reference:
COMPOUND | UVA/UVB
c1c[nH]c(-c2nc3ccccc3[nH]2)c1 [Lead 10, reference compound] | 0.73
c1c[nH]c(-c2nc3ccccc3s2)c1 | 0.92

QUERY: Bench note: what UVA/UVB did c1csc(-c2nc3ccccc3s2)c1 [Compound 10a, 2-(Thiophen-2-Yl)benzothiazole] show?
RESULT: 0.62

QUERY: What do we get for c1coc(-c2nc3ccccc3s2)c1 ?
RESULT: 0.18
